Ref: paper PMC12299463

System: T-47D human breast cancer cells
Assay details: cells
Format: cell-based
Measurement conditions: MTT assay, T-47D; read-out: Cytotoxicity, IC50, T-47D
Experimental endpoint: IC50

Asked: Which measured IC50 value corresponds to C=C(C)CC[C@@H](OC(C)=O)[C@]1(C)OC(=O)C23CC=C4[C@@H](CC[C@H]5C(C)(C)[C@@H](O[C@@H]6OC[C@@H](O[C@@H]7OC[C@@H](O)[C@H](O[C@@H]8O[C@H](CO)[C@@H](O)[C@H](OC)[C@H]8O)[C@H]7O)[C@H](O)[C@H]6O[C@@H]6O[C@H](C)[C@@H](O[C@@H]7OC[C@@H](O)[C@H](O[C@@H]8O[C@H](CO)[C@@H](O)[C@H](OC)[C@H]8O)[C@H]7O)[C@H](O)[C@H]6O)CC[C@]45C)[C@]2(C)C[C@H](OC(C)=O)[C@@H]31 (stereo partly shown) [Cladoloside G (25), cladoloside G] ?
Given back: > 20 µM

###

pIC50 for assorted compounds
Tested on: MDA-MB-231 triple-negative breast cancer cells
Assay details: cells
Assay type: cell-based, human
pIC50: −log10 of the molar value.

Would you please look over these solved cases?
Asked: # get_value(readout='pIC50', item= CO[C@@H]1[C@@H](O)[C@H](O[C@@H]2[C@@H](O)[C@H](O[C@@H]3CO[C@@H](O[C@H]4CC[C@]5(C)C6=CCC78C(=O)O[C@@](C)([C@@H](CCC(C)C)OC(C)=O)[C@H]7[C@@H](OC(C)=O)C[C@@]8(C)[C@@H]6CC[C@H]5C4(C)C)[C@H](O[C@@H]4O[C@H](C)[C@@H](O[C@@H]5OC[C@@H](O)[C@H](O[C@@H]6O[C@H](CO)[C@@H](O)[C@H](OS(=O)(=O)O)[C@H]6O)[C@H]5O)[C@H](O)[C@H]4O)[C@H]3O)O[C@H](CO)[C@H]2O)O[C@H](CO)[C@H]1O (stereo partly drawn) [Cladoloside T1 (4)] )
Given back: 5.53

Asked: Which pIC50 reading was recorded for the compound C=C(C)CC[C@@H](OC(C)=O)[C@]1(C)OC(=O)C23CC=C4[C@@H](CC[C@H]5C(C)(C)[C@@H](O[C@@H]6OC[C@@H](O[C@@H]7O[C@H](CO)[C@@H](O)[C@H](O)[C@H]7O)[C@H](O)[C@H]6O[C@@H]6O[C@H](C)[C@@H](O[C@@H]7OC[C@@H](O)[C@H](O[C@@H]8O[C@H](COS(=O)(=O)[O-])[C@@H](O)[C@H](OC)[C@H]8O)[C@H]7O)[C@H](O)[C@H]6O)CC[C@]45C)[C@]2(C)C[C@H](OC(C)=O)[C@@H]31.[Na+] (stereo partly drawn) [I2 (29), cladoloside I2] ?
Given back: < 4.70

Next compound, please.
Asked: # get_value(readout='pIC50', item= CO[C@@H]1[C@@H](O)[C@H](O[C@@H]2[C@@H](O)[C@H](O[C@H]3[C@H](O)[C@@H](O)[C@H](O[C@H]4[C@H](O[C@H]5CC[C@]6(C)C7=CCC89C(=O)O[C@@](C)([C@@H](CCC(C)C)OC(C)=O)[C@H]8[C@@H](OC(C)=O)C[C@@]9(C)[C@@H]7CC[C@H]6C5(C)C)OC[C@@H](O)[C@@H]4O)O[C@@H]3C)OC[C@H]2O)O[C@H](CO)[C@H]1O (stereo partly drawn) )
Given back: < 4.70

###

Each entry below carries its reported pIC50.
Test system: T-47D human breast cancer cells;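 further: cell viability read as absorbance of formazan dye at 570 nm, each experiment run in triplicate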
Assay details: cells
Type: cell-based
Measurement conditions: MTT assay, T-47D; read-out: Cytotoxicity, IC50, T-47D
pIC50 here is simply -log10 of the concentration when that concentration is written in mol/L.

Asked: For T-47D human breast cancer cells, provide pIC50 of CO[C@@H]1[C@@H](O)[C@H](O[C@@H]2[C@@H](O)[C@H](O[C@@H]3CO[C@@H](O[C@H]4CC[C@]5(C)C6=CCC78C(=O)O[C@@](C)([C@@H](CCC(C)C)OC(C)=O)[C@H]7[C@@H](OC(C)=O)C[C@@]8(C)[C@@H]6CC[C@H]5C4(C)C)[C@H](O[C@@H]4O[C@H](C)[C@@H](O[C@@H]5OC[C@@H](O)[C@H](O[C@@H]6O[C@H](CO)[C@@H](O)[C@H](OC)[C@H]6O)[C@H]5O)[C@H](O)[C@H]4O)[C@H]3O)O[C@H](C)[C@H]2O)O[C@H](CO)[C@H]1O (stereo partly drawn) [Cladoloside H1 (26), Cladoloside H1] please.
Given back: 4.88

Asked: Recall the recorded pIC50 for C=C(C)CCC[C@]1(C)OC(=O)C23CC=C4[C@@H](CC[C@H]5C(C)(C)[C@@H](O[C@@H]6OC[C@@H](O[C@@H]7O[C@H](CO)[C@@H](O)[C@H](O[C@@H]8O[C@H](CO)[C@@H](O)[C@H](OC)[C@H]8O)[C@H]7O)[C@H](O)[C@H]6O[C@@H]6O[C@H](C)[C@@H](O[C@@H]7OC[C@@H](O)[C@H](O[C@@H]8O[C@H](CO)[C@@H](O)[C@H](O)[C@H]8O)[C@H]7O)[C@H](O)[C@H]6O)CC[C@]45C)[C@]2(C)CC(=O)[C@@H]31 (stereo partly drawn) [Cladoloside P2 (41), Cladoloside P2] with T-47D human breast cancer cells and state it.
Given back: 4.98

With those in mind, consider the next compound.
Asked: What value of pIC50 on T-47D human breast cancer cells does C=C(C)CCC[C@]1(C)OC(=O)C23CC=C4[C@@H](CC[C@H]5C(C)(C)[C@@H](O[C@@H]6OC[C@@H](O[C@@H]7O[C@H](CO)[C@@H](O)[C@H](O[C@@H]8O[C@H](COS(=O)(=O)[O-])[C@@H](O)[C@H](OC)[C@H]8O)[C@H]7O)[C@H](O)[C@H]6O[C@@H]6O[C@H](C)[C@@H](O[C@@H]7OC[C@@H](O)[C@H](O[C@@H]8O[C@H](CO)[C@@H](O)[C@H](OC)[C@H]8O)[C@H]7O)[C@H](O)[C@H]6O)CC[C@]45C)[C@]2(C)CC(=O)[C@@H]31.[Na+] (stereo partly drawn) [Cladoloside L1 (33), Cladoloside L1] have?
Given back: 5.04

###

Test system: MDA-MB-231 triple-negative breast cancer cells
Assay details: cells
Assay type: cell-based, human
Measurement conditions: ratio of IC50 for healthy (MCF-10A) and MDA-MB-231 cells
Below, each entry is listed alongside its reported Selectivity Index (SI), MDA-MB-231.
Give the figure by itself; no unit, no explanation.

Asked: Data request, read-out Selectivity Index (SI), MDA-MB-231, for C=C(C)CCC[C@]1(C)OC(=O)C23CC=C4[C@@H](CC[C@H]5C(C)(C)[C@@H](O[C@@H]6OC[C@@H](O[C@@H]7O[C@H](CO)[C@@H](O)[C@H](O[C@@H]8O[C@H](CO)[C@@H](O)[C@H](OC)[C@H]8O)[C@H]7O)[C@H](O)[C@H]6O[C@@H]6O[C@H](C)[C@@H](O[C@@H]7OC[C@@H](O)[C@H](O[C@@H]8O[C@H](CO)[C@@H](O)[C@H](O)[C@H]8O)[C@H]7O)[C@H](O)[C@H]6O)CC[C@]45C)[C@]2(C)CC(=O)[C@@H]31 (some centres unmarked) [Cladoloside P2 (41), Cladoloside P2]
Given back: 1.60

Further cases:
Asked: Bench note: what Selectivity Index (SI), MDA-MB-231 did CO[C@@H]1[C@@H](O)[C@H](O[C@@H]2[C@@H](O)[C@H](O[C@H]3[C@H](O)[C@@H](O)[C@H](O[C@H]4[C@H](O[C@H]5CC[C@]6(C)C7=CCC89C(=O)O[C@@](C)([C@@H](CCC(C)C)OC(C)=O)[C@H]8[C@@H](OC(C)=O)C[C@@]9(C)[C@@H]7CC[C@H]6C5(C)C)OC[C@@H](O[C@@H]5O[C@H](CO)[C@@H](O)[C@H](O)[C@H]5O)[C@@H]4O)O[C@@H]3C)OC[C@H]2O)O[C@H](COS(=O)(=O)[O-])[C@H]1O.[Na+] (some centres unmarked) [Cladoloside I1 (28), cladoloside I1] show?
Given back: 4.45

###

System: human erythrocytes
Assay details: Hemolytic activity against human erythrocytes
Assay type: cell-based
Measurement conditions: 1 h at 37 °C
Experimental endpoint: ED50, Erythrocytes (hemolytic activity) (µM)
A number alone suffices; assume µM.

Asked: Form: Entry = C=C(C)CC[C@@H](OC(C)=O)[C@]1(C)OC(=O)C23CC=C4[C@@H](CC[C@H]5C(C)(C)[C@@H](O[C@@H]6OC[C@@H](O[C@@H]7OC[C@@H](O)[C@H](O)[C@H]7O)[C@H](O)[C@H]6O[C@@H]6O[C@H](C)[C@@H](O[C@@H]7OC[C@@H](O)[C@H](O[C@@H]8O[C@H](COS(=O)(=O)O)[C@@H](O)[C@H](OC)[C@H]8O)[C@H]7O)[C@H](O)[C@H]6O)CC[C@]45C)[C@]2(C)C[C@H](OC(C)=O)[C@@H]31 (stereo partly shown) [Cladoloside S (1)] | System = human erythrocytes | ED50, Erythrocytes (hemolytic activity) = ____
Given back: 3.40
